Catalogue of compounds with associated Ki
Study system: sigma-1 receptor (Homo sapiens, UniProt Q99720)
Sequence (Q99720 whole entry, species assumed): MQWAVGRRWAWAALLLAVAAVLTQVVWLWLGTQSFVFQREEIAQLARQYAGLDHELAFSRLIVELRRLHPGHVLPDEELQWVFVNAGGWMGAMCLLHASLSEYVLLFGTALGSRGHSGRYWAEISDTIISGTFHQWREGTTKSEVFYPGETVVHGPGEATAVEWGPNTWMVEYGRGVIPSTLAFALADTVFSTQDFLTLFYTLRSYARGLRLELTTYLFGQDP
Assay comment: sigma-1 receptor binding affinity (Ki)
Condition details: read-out: Ki (nM) Sigma-1

CCCn1nc(C(=O)N(C)C)c2c1CCC(SCc1ccc(F)cc1)C2 (stereo not drawn) [compound 200624]	> 10000 nM
CCCn1nc(C(=O)N2CCCCC2)c2c1CCC(NCCc1ccc(O)cc1)C2 (stereo not drawn) [compound 200643]	> 10000 nM

Exercise: Short answer please: Ki, sigma-1 receptor (Homo sapiens, UniProt Q99720), entry CCCn1nc(C(=O)N(C)C)c2c1CCC(NC(=O)c1ccc(F)cc1)C2 (stereo not drawn) [compound 2000623]
Key: > 10000 nM

* * *

Study system: sigma-2 receptor (Homo sapiens)
Sequence (Q5BJF2 whole entry, species assumed): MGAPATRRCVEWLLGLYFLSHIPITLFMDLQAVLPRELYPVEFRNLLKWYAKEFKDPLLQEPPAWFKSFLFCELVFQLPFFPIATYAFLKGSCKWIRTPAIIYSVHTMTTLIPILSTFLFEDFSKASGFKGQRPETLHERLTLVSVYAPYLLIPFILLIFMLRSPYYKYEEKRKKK
Assay comment: sigma-2 receptor binding affinity (Ki)
Condition details: read-out: Ki (nM) Sigma-2
Each entry below carries its reported Ki.

CCCn1nc(C(=O)N(C)C)c2c1CCC(SCc1ccc(F)cc1)C2 (centres unmarked)	> 10000 nM
CCCn1nc(C(=O)N(C)C)c2c1CCC(OCc1ccc(F)cc1)C2 (centres unmarked)	> 10000 nM
CCCn1nc(C(=O)N(C)C)c2c1CCC(NS(=O)(=O)c1ccc(F)cc1)C2 (centres unmarked)	> 10000 nM
O=C(c1nn(-c2ccccc2)c2c1CC(NCc1ccc(F)cc1)CC2)N1CCCCC1 (centres unmarked)	> 10000 nM
O=C(c1c2c(nn1-c1ccccc1)CCC(NCCc1ccc(C(F)(F)F)cc1)C2)N1CCCCC1 (centres unmarked)	> 10000 nM

Exercise: What does the data say about its Ki? Entry: O=C(c1nn(-c2ccccc2)c2c1CC(NCCc1cccc(O)c1)CC2)N1CCCCC1 (centres unmarked)
Key: > 10000 nM

Exercise: Find the recorded Ki belonging to O=C(c1nn(Cc2ccccc2)c2c1CC(NCCc1ccncc1)CC2)N1CCCCC1 (centres unmarked) and report it.
Key: > 10000 nM

Exercise: Bench note: what Ki did CCCn1nc(C(=O)N2CCCCC2)c2c1CCC(N1CCC(N(C)C)CC1)C2 (centres unmarked) show?
Key: > 10000 nM
